The origin of these recorded values is patent US20250320206A1.

# TEST_TARGET: STAT6 (Homo sapiens, UniProt P42226)
# Construct: These cells express endogenous STAT6; host or cells: HeLa LgBiT clone 4.14
# Sequence (P42226 whole entry): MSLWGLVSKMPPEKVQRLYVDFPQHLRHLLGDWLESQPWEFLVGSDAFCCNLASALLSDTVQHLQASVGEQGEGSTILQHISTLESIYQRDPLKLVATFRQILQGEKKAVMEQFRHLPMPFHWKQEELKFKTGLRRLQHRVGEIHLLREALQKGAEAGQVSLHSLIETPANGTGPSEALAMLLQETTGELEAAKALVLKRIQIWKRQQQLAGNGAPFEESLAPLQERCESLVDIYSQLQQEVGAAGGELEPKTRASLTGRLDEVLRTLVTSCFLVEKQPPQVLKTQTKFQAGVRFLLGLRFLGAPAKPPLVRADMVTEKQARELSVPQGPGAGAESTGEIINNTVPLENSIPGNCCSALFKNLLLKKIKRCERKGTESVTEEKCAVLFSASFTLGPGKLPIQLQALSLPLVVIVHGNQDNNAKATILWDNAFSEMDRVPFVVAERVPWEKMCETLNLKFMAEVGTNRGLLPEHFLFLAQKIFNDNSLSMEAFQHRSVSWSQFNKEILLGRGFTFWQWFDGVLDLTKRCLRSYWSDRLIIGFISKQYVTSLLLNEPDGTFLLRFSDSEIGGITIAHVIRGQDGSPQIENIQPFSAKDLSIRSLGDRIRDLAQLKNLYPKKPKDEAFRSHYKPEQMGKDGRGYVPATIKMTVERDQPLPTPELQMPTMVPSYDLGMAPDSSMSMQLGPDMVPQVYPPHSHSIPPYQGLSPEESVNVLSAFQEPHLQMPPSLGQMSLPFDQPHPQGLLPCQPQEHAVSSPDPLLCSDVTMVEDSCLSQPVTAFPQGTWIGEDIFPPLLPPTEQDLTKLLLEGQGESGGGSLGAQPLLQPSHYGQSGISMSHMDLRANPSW
# EXPERIMENTAL_DETAILS: Stat6 Degrader Assay (HiBiT based, HeLa LgBiT clone 4.14)
# Format: cell-based
# MEASUREMENT_CONDITIONS: HeLa LgBiT clone 4.14 HiBiT-STAT6, 4-24 h incubation; values given for compounds with >80% Emax; geometric mean; read-out: STAT6 degradation DC50
MEASURED_QUANTITY: DC50 (nM)

>>> obs_value("CNc1ccn(-c2ccnc3c2cc([C@H](C)N2CC=C(c4c(C)cc(C(=O)N5CCC(CN6CCN(Cc7ccc8c(c7)n(C)c(=O)n8[C@@H]7CCC(=O)NC7=O)C[C@@H]6C)CC5)cc4F)CC2)n3C)c(=O)c1 (single isomer, unassigned)")
0.3
>>> obs_value("CNc1cc(=O)n(-c2ccnc3c2cc([C@H](C)N2CC=C(c4c(C)cc(C(=O)N5CCC(CN6CCN(Cc7ccc8c(c7)n(C)c(=O)n8[C@@H]7CCC(=O)NC7=O)C[C@@H]6C)CC5)cc4F)CC2)n3C)cc1F (single isomer, unassigned)")
0.4

I: CNc1cc(=O)n(-c2ccnc3c2cc([C@H](C)N2CC=C(c4c(C)cc(C(=O)N5CCC(CN6CCN(Cc7ccc8c(c7)n(C7CC7)c(=O)n8C7CCC(=O)NC7=O)C[C@@H]6C)CC5)cc4F)CC2)n3C)cc1F (stereo partly shown)
II: CNc1cc(=O)n(-c2ccnc3c2cc([C@H](C)N2CC=C(c4c(C)cc(C(=O)N5CCC(F)(CC6CCN(c7ccc8c(c7)C7(CC7)C(=O)N8C7CCC(=O)NC7=O)CC6)CC5)cc4F)CC2)n3C)cc1F (stereo partly shown)
In: When I and II are compared, which has the higher number for DC50? Give the chosen item's label as your response.
Out: I
(I: 1.2 nM, II: 0.4 nM)

====

# TEST_TARGET: STAT6 (Homo sapiens, UniProt P42226)
# Construct: These cells express endogenous STAT6; host or cells: HeLa LgBiT clone 4.14
# EXPERIMENTAL_DETAILS: Stat6 Degrader Assay (HiBiT based, HeLa LgBiT clone 4.14)
# Type: cell-based
# MEASUREMENT_CONDITIONS: HeLa LgBiT clone 4.14 HiBiT-STAT6, 4-24 h incubation; values given for compounds with >80% Emax; geometric mean; read-out: STAT6 degradation DC50
MEASURED_QUANTITY: DC50 (nM)

>>> obs_value("CNc1cc(=O)n(-c2ccnc3c2cc([C@H](C)N2CC=C(c4c(C)cc(C(=O)N5CCC(CN6CCN(Cc7ccc8c(c7)C7(CC7)C(=O)N8[C@@H]7CCC(=O)NC7=O)CC6)CC5)cc4F)CC2)n3C)cc1F (single isomer, unassigned)")
1
>>> obs_value("CNc1ccn(-c2ccnc3c2cc([C@H](C)N2CCC(c4ccc(C(=O)N5CCC(CN6CCN(Cc7ccc8c(c7)n(C)c(=O)n8C7CCC(=O)NC7=O)C[C@@H]6C)CC5)cc4)CC2)n3C)c(=O)c1 (stereo partly shown)")
0.5
>>> obs_value("Cc1cc(C(=O)N2CCC(CN3CCN(Cc4cc5c(cc4F)n([C@@H]4CCC(=O)NC4=O)c(=O)n5C4CC4)CC3)CC2)cc(F)c1C1=CCN([C@@H](C)c2cc3c(-n4ccc5c(c4=O)CCN5)ccnc3n2C)CC1 (single isomer, unassigned)")
2.7
>>> obs_value("CNc1ccn(-c2ccnc3c2cc(CN2CCC(c4c(F)cc(C(=O)N5CCC(CN6CCN(Cc7ccc8c(c7)C(C)(C)C(=O)N8C7CCC(=O)NC7=O)CC6)CC5)cc4F)CC2)n3C)c(=O)c1 (stereo not shown)")
11.2
>>> obs_value("CNc1ccn(-c2ccnc3c2cc([C@H](C)N2CC=C(c4c(C)cc(C(=O)N5CCC(CN6CCN(c7ccc8c(c7)n(C)c(=O)n8[C@@H]7CCC(=O)NC7=O)CC6)CC5)cc4F)CC2)n3C)c(=O)c1 (single isomer, unassigned)")
0.8
>>> obs_value("CNc1cc(=O)n(-c2ccnc3c2cc([C@H](C)N2CC=C(c4c(F)cc(C(=O)N5CCC(CN6CCN(Cc7ccc8c(c7)n(C)c(=O)n8C7CCC(=O)NC7=O)CC6)CC5)cc4F)CC2)n3C)cc1F (mixture of isomers)")
1.8
>>> obs_value("CNc1cc(=O)n(-c2ccnc3c2cc([C@H](C)N2CC=C(c4c(C)cc(C(=O)N5CCC(CN6CCN(Cc7cc8c(cc7F)N([C@@H]7CCC(=O)NC7=O)C(=O)C87CC7)CC6)CC5)cc4F)CC2)n3C)cc1F (single isomer, unassigned)")
4.1
>>> obs_value("CNc1ccn(-c2ccnc3c2cc([C@H](C)N2CC=C(c4c(C)cc(C(=O)N5CCC(CN6CCN(Cc7cc8c(cc7F)N([C@H]7CCC(=O)NC7=O)C(=O)C87CC7)C[C@@H]6C)CC5)cc4F)CC2)n3C)c(=O)c1 (single isomer, unassigned)")
1.7

a: CNc1cc(=O)n(-c2ccnc3c2cc(CN2CCC(c4c(F)cc(C(=O)N5CCC(CN6CCN(Cc7cc8c(cc7F)N([C@H]7CCC(=O)NC7=O)C(=O)C87CC7)CC6)CC5)cc4F)CC2)n3C)cc1F (single isomer, unassigned)
b: CNc1ccn(-c2ccnc3c2cc(CN2CC=C(c4c(C)cc(C(=O)N5CCC(CN6CCN(Cc7ccc8c(c7)n(C)c(=O)n8[C@H]7CCC(=O)NC7=O)CC6)CC5)cc4F)CC2)n3C)c(=O)c1 (single isomer, unassigned)
In: Hello, I am sorting some records. Could you say if a or b has the smaller DC50 value? Give the chosen item's label as your response.
Out: b

a: CNc1ccn(-c2ccnc3c2cc(CN2CC=C(c4c(F)cc(C(=O)N5CCC(CN6CCN(Cc7ccc8c(c7)n(C7CC7)c(=O)n8C7CCC(=O)NC7=O)C[C@@H]6C)CC5)cc4F)CC2)n3C)c(=O)c1 (stereo partly shown)
b: CNc1ccn(-c2ccnc3c2cc([C@H](C)N2CC=C(c4c(C)cc(C(=O)N5CCC(CN6CCN(Cc7ccc8c(c7)C7(CC7)C(=O)N8C7CCC(=O)NC7=O)C[C@@H]6C)CC5)cc4F)CC2)n3C)c(=O)n1 (stereo partly shown)
c: CNc1ccn(-c2ccnc3c2cc([C@H](C)N2CC=C(c4c(C)cc(C(=O)N5CCC(CN6CCN(Cc7cc8c(cc7F)N(C7CCC(=O)NC7=O)C(=O)C8(C)C)C[C@@H]6C)CC5)cc4F)CC2)n3C)c(=O)c1 (stereo partly shown)
d: CNc1ccn(-c2ccnc3c2cc([C@H](C)N2CC=C(c4c(C)cc(C(=O)N5CCC(CN6CCN(Cc7ccc8c(c7)C7(CC7)C(=O)N8[C@H]7CCC(=O)NC7=O)C[C@@H]6C)CC5)cc4F)CC2)n3C)c(=O)c1 (single isomer, unassigned)
In: Hey, quick one: sort these by DC50, largest value first please. Order the labels as requested and list them.
Out: a, c, b, d

a: Cc1cc(C(=O)N2CCC(CN3CCN(Cc4cc5c(cc4F)n(C4CCC(=O)NC4=O)c(=O)n5C)CC3)CC2)cc(F)c1C1=CCN([C@@H](C)c2cc3c(-n4ccc5c(c4=O)CCN5)ccnc3n2C)CC1 (stereo partly shown)
b: CNc1cc(=O)n(-c2ccnc3c2cc([C@H](C)N2CC=C(c4c(C)cc(C(=O)N(C)c5ccc(N6CCC(Cc7ccc8c(c7)n(C)c(=O)n8C7CCC(=O)NC7=O)CC6)nc5)cc4F)CC2)n3C)cc1F (stereo partly shown)
In: When a and b are compared, which has the higher number for DC50? Give the chosen item's label as your response.
Out: a
